- target_or_test_system: T1, human LILRB5 (human, UniProt O75023 24-590)
- T1 construct: whole, on cells; also called hLILRB5
- T1 sequence (O75023 24-590): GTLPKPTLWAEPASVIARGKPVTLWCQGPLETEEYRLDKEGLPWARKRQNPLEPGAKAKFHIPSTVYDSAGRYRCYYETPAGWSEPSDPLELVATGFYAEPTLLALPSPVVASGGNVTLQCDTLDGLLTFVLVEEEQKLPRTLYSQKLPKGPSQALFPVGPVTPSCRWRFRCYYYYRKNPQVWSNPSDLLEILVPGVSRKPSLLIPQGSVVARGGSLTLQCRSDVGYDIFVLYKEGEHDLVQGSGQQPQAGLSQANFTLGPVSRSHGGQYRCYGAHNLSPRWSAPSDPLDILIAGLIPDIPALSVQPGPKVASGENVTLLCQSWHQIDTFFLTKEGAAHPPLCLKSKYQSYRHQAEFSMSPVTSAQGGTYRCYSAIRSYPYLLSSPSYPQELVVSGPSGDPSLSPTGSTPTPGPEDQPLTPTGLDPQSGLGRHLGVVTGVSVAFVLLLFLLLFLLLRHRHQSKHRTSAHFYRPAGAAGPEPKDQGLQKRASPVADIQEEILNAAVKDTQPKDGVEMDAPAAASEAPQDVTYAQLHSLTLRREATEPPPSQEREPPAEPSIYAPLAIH
- test_protocol: FACS, 293F-hLILRB5 cells
Property: MFI; scope: individual binders
measured_endpoint: MFI

25-E7-A10-H6 (antibody, V domains shown, mouse monoclonal hybridoma antibody) VH: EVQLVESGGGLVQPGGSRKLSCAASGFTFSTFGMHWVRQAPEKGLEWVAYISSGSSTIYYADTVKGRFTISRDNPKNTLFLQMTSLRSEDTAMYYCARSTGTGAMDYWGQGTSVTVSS VL: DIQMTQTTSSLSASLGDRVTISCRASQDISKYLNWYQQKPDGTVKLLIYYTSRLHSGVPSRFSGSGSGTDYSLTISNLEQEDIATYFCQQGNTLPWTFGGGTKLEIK
16.3 MFI
27-F11-E10-G10 (antibody, V domains shown, mouse monoclonal hybridoma antibody) VH: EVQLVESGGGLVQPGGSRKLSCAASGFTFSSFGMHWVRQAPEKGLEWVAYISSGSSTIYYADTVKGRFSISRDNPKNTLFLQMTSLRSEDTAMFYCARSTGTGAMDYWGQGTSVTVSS VL: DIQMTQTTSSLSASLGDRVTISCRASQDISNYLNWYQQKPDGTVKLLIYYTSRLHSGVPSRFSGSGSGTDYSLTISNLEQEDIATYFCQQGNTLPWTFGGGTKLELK
19.5 MFI
25-G9-G4-C12 (antibody, V domains shown, mouse monoclonal hybridoma antibody) VH: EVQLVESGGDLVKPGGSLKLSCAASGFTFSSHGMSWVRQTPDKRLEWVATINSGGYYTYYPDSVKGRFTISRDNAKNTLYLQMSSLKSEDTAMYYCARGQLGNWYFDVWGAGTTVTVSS VL: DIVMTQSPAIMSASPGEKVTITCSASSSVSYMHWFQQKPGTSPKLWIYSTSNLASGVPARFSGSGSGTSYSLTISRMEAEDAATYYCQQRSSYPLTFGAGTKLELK
22.9 MFI
